Each recorded value in this set is attributed to ChEMBL document CHEMBL1208718.

The following compounds are shown together with reported inhibition values.
molecular target: Cannabinoid receptor 2 (Rattus norvegicus) (UniProt Q9QZN9); assay: Binding affinity to CB2 receptor in rat spleen homogenates at 1 uM; format: tissue-based
Sequence (Q9QZN9 whole entry): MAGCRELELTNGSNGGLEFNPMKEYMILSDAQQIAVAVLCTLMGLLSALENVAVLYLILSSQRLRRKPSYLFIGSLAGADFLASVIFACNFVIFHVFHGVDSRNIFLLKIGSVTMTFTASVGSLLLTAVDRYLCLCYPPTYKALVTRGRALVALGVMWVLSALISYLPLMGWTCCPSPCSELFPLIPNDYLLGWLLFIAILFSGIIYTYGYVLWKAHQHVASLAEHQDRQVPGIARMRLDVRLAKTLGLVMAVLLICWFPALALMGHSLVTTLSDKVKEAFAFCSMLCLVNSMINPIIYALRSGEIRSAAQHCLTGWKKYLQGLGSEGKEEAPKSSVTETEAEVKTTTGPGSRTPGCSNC
Number only, in %; omit the unit.

chemical_smiles | system | value_units | observed_value
CC1(C)CCN(C2(C(N)=O)CCN(C(=O)c3cc(-c4ccc(Cl)cc4Cl)c(-c4ccc(Cl)cc4)n3CCCNS(C)(=O)=O)CC2)CC1 | Cannabinoid receptor 2 (Rattus norvegicus) (UniProt Q9QZN9) | % | 27
Cn1c(C(=O)N2CCC(C(N)=O)(c3ccccc3)CC2)cc(-c2ccc(Cl)cc2Cl)c1-c1ccc(Cl)cc1 | Cannabinoid receptor 2 (Rattus norvegicus) (UniProt Q9QZN9) | % | 17
Cn1c(C(=O)N2CCC(C(N)=O)(N3CCOCC3)CC2)cc(-c2ccc(Cl)cc2Cl)c1-c1ccc(Cl)cc1 | Cannabinoid receptor 2 (Rattus norvegicus) (UniProt Q9QZN9) | % | 42

Kindly review the next compound as well.
Dear colleague, I am looking for the recorded inhibition of the following compound: `Cc1c(C(=O)NN2CCCCC2)nn(-c2ccc(Cl)cc2Cl)c1-c1ccc(Cl)cc1` 66
